tested on: MS2 coat protein; assay: apparent KD of MS2 coat protein; designed switch direction (-1 OFF switch, 1 ON switch): -1; higher = weaker reporter binding; details: input ligand: FMN 200 uM
Kindly supply the reported apparent KD of MS2 coat protein values for the records listed here.
Numbers only, in nM.

sequenceContent	quantityName	unitAbbreviation	reportedResult
UUAAUUUUAGGAUAUACAUGAGGAUCACCCAUGUGGCGGGCCAUGAUGGAGCGUACCAGUAGAAGGAAGAACAG [Eternabot (L2) Solution 43] (Eterna round: R97, puzzle: Exclusion 3)	apparent KD of MS2 coat protein	nM	69.2

Return reported apparent KD of MS2 coat protein values for all items listed beneath this line.
1. CAGGCGUCUGUGCGUGGUGACAUGAGGAUCACCCAUGUUUUGCUCGUUUUGUCUUGGGCUCGGCGCCCGGGUUCGGG [-24.5, -48.6, A 9%] (Eterna round: R97, puzzle: Sensor, turn-off variant 1)
2. CCGACGUGAGGAUAUCCAUCUGGAUCAGACUAGAUCCUGAUGGAGAAGGCACAUGAGGAUCACCCAUGUUACGG [Eli 4x 4.41] (Eterna round: R97, puzzle: Exclusion 4)
3. ACUUACUGAGGAUAUACAUAGAUUUACAUGAGGAUCACCCAUGUUCCUCUAAGUAUAUAUGUAGAAGGCAGAAGGU [Mat - Exclusion 5 - JL Mod - D42] (Eterna round: R97, puzzle: Exclusion 5)
4. ACAAGCUUUUUCAUAUCUUACAUGAGGAUCACCCAUGUUUUUGCAAUUAUGUUUGGGCUCUUUUGUGCUCGUCUUAU [JR_STOV1_Sub049] (Eterna round: R97, puzzle: Sensor, turn-off variant 1)
5. AAUUUACAUGAGGAUCACCCAUGUGAGGAUAUAUGUUUUAAUUUUUUUUUUUUUUUUCAUAGAAGGCGCGUGAU [JR_Exc1_Sub047] (Eterna round: R97, puzzle: Exclusion 1)
6. AGCUUUGGAGGAUAUUGAGCGGAAAACAUGAGGAUCACCCAUGUAAGUGGGCGAAAUGUAUAAGAAGGCCGAAGGU [Eternabot (L2) Solution 15] (Eterna round: R97, puzzle: Exclusion 5)
7. UGCCAGAAAGGAUAUACAUGAGGAUCACCCAUGUAACCCUAUGUGAGAGUUCCCGUUUGUAGAAGGUUCUCGUA [EX3 C.22] (Eterna round: R97, puzzle: Exclusion 3)
8. GUCCAACAUGAGGAUCACCCAUGUCAGGAUAUGCGAAUUUCAUCAAAAGAUGAAAUUUGCAGAAGGGACUGGAC [Omei Ex1 A29] (Eterna round: R97, puzzle: Exclusion 1)

Found:
181
909
177
14.9
49.4
205
21.3
44
